# assay.system: Adenosine A2a receptor (Homo sapiens)
# Sequence (P29274 whole entry): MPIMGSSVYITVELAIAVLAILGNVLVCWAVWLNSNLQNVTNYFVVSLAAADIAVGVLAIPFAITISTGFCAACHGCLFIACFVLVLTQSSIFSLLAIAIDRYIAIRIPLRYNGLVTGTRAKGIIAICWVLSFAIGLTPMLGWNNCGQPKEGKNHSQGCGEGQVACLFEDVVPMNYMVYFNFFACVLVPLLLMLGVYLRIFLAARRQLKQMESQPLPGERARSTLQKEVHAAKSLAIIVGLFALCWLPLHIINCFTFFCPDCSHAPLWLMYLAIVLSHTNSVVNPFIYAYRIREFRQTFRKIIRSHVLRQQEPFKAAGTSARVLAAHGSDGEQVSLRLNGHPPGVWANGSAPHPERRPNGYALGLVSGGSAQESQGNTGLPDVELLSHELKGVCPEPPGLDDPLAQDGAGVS
# test.method.notes: FLIPR intracellular Ca2+ functional assay, recombinant CHO cells (A2a/Gα16)
# condition.label: read-out: EC50 values (agonist activity at adenosine receptors) A2A
readout.name: EC50

Query: Test system Adenosine A2a receptor (Homo sapiens); read-out EC50; what value for `O[C@@H]1[C@@H](COC(F)(F)F)C[C@@H](n2cnc3c(N[C@H]4CCN(c5cccc(Cl)c5)C4)ncnc32)[C@@H]1O` ?
Response: > 30 µM

###

# System: isolated rat adipocytes
# test.method.notes: Antilipolytic effect in isolated rat adipocytes
# Assay type: cell-based
# condition.label: Adipocyte, adenosine deaminase-induced lipolysis (glycerol and free fatty acid release)
readout.name: pIC50
Numbers only, as −log10 of the molar value.

O[C@@H]1[C@@H](COC(F)(F)F)C[C@@H](n2cnc3c(N[C@H]4CCN(c5ccc(C(F)(F)F)cc5)C4)ncnc32)[C@@H]1O ... 7.00
O[C@@H]1[C@@H](CF)C[C@@H](n2cnc3c(N[C@H]4CCN(c5ccc(C(F)(F)F)cn5)C4)ncnc32)[C@@H]1O ... 7.00

Query: Requested read-out: pIC50. Entry: `CC[C@H](Cc1sccc1Cl)Nc1ncnc2c1ncn2[C@@H]1C[C@H](CF)[C@@H](O)[C@H]1O`
Response: 7.70
